Recorded values, source patent US6358885B1.

Test system: crabgrass
Assay: Test B preemergence/postemergence greenhouse plant response rating 0 to 10
Format: in vivo, Digitaria spp.
Conditions: POSTEMERGENCE, Rate 200 g/ha; 0 to 10 scale
Field 'label' (enum: label 1 / label 0). Set to label 1 when Plant response rating, Crabgrass is strictly under 5; else label 0.

For this compound, is Plant response rating, Crabgrass lower than 5? `C#CCOc1cc(-c2nn3c(c2Br)CCCC3)c(F)cc1Cl`
label 0

Here is the next compound: `CCCOc1cc(-c2nn3c(c2Cl)CCCC3)c(F)cc1Cl`
label 0

Next: `CCOC(=O)COc1cc(-c2nn3c(c2Cl)CCCC3)c(F)cc1Cl`
label 1

Would you mind doing C#CC(C)Oc1cc(-c2nn3c(c2Cl)CCCC3)c(F)cc1Cl (centres unmarked) as well?
label 0

Same question, `CCC(=O)Oc1cc(-c2nn3c(c2Cl)CCCC3)c(F)cc1Cl` this time
label 0

Continuing:
Check if Plant response rating, Crabgrass falls below 5 for `Fc1cc(Cl)c(OCc2ccccc2)cc1-c1nn2c(c1Cl)CCCC2` .
label 1

Try this compound next: `CC(C)OC(=O)COc1cc(-c2nn3c(c2Cl)CCCC3)c(F)cc1Cl`
label 1

---

Reported Plant response rating, Rape is given for each of the following compounds.
System: rape
Test: Test B preemergence/postemergence greenhouse plant response rating 0 to 10
Format: in vivo, Brassica napus
Settings: PREEMERGENCE, Rate 50 g/ha; 0 to 10 scale
Give your answer as a number; write no unit.

Example compounds with recorded Plant response rating, Rape:
Write down the reported Plant response rating, Rape of `CC(C)OC(=O)COc1cc(-c2nn3c(c2Br)CCCC3)c(F)cc1Cl` , test system: rape.
0

Next entry: `COCOc1cc(-c2nn3c(c2Cl)CCCC3)c(F)cc1Cl`
5

Input C#CC(C)N1C(=O)COc2cc(F)c(-c3nn4c(c3Cl)CCCC4)cc21 (stereo not shown)
8

Now look at this entry.
Short answer please: Plant response rating, Rape, rape, entry `Fc1cc(Cl)c(OCc2ccccc2)cc1-c1nn2c(c1Cl)CCCC2`
0

---

Tested on: lambsquarters
Assay: Test B preemergence/postemergence greenhouse plant response rating 0 to 10
Type: in vivo, Chenopodium album
Details: PREEMERGENCE, Rate 200 g/ha
Source text: Seeds of barley (Hordeum vulgare), barnyardgrass (Echinochloa crus-galli), bedstraw (Galium aparine), blackgrass (Alopecurus myosuroides), […] […] Treated plants and controls were maintained in a greenhouse for twelve to sixteen days, after which all species were compared to controls and visually evaluated. […]
Recorded measurements of Plant response rating (0 to 10 scale), Lambsquarter, one per entry
Kindly provide the number alone.

Need Plant response rating (0 to 10 scale), Lambsquarter of `CCOC(=O)COc1cc(-c2nn3c(c2Cl)CCCC3)c(Cl)cc1Cl` , thanks.
10

Same read-out for `FCCCOc1cc(-c2nn3c(c2Cl)CCCC3)c(F)cc1Cl` ?
10

Okay, next one:
Look up Plant response rating (0 to 10 scale), Lambsquarter for this compound: `CC(C)(C)C(=O)COc1cc(-c2nn3c(c2Cl)CCCC3)c(Cl)cc1Cl`
10

---

Test system: crabgrass
Assay: Test C preemergence/postemergence greenhouse plant response rating 0 to 100
Type: in vivo, Digitaria sanguinalis
Conditions: POSTEMERGENCE, 250 g/ha, 0 to 100 scale
VALUE KIND: Plant response rating, Crabgrass
Answer using only a numeral; do not append any unit.

Below: 2 compounds and their reported Plant response rating, Crabgrass.
What value of Plant response rating, Crabgrass on crabgrass does Fc1cc(Cl)c(OCCCl)cc1-c1nn2c(c1Cl)CCCC2 [Compound 49] have?
40

Thanks! And C#CC(C)Oc1cc(-c2nn3c(c2Br)CCCC3)c(F)cc1Cl (stereo not drawn) [Compound 66] ?
50

Alright, here's another compound for you.
Lab note: need Plant response rating, Crabgrass for COc1cc(-c2nn3c(c2Cl)CCCC3)c(F)cc1Cl [Compound 29] on crabgrass, anyone have it?
50

---

System: purple nutsedge
Test: Test B preemergence/postemergence greenhouse plant response rating 0 to 10
Assay type: in vivo, Cyperus rotundus
Settings: POSTEMERGENCE, Rate 50 g/ha; 0 to 10 scale
Binary call on Plant response rating, Nutsedge: MET from 2 upward, NOT MET beneath that.

Does Plant response rating, Nutsedge meet or surpass 2 for COCCN1C(=O)COc2cc(F)c(-c3nn4c(c3Cl)CCCC4)cc21 [Compound 53] ?
MET

Same thing, different molecule: CC(C)Oc1cc(-c2nn3c(c2Br)CCCC3)c(F)cc1Cl [Compound 38]
MET

Query C#CCN1C(=O)COc2cc(F)c(-c3nn4c(c3Cl)CCCC4)cc21 [Compound 34] next
NOT MET

One more molecule: C=CCN1C(=O)COc2cc(F)c(-c3nn4c(c3Cl)CCCC4)cc21 [Compound 33]
MET

Request: CC(C)OC(=O)c1cc(-c2nn3c(c2Cl)CCCC3)c(F)cc1Cl [Compound 44]
MET

---

Tested on: rice
Experiment: Test C flood test plant response rating 0 to 100
Assay type: in vivo, Oryza sativa
Details: flood test species listed under POSTEMERGENCE, 62 g/ha, 0 to 100 scale
Each entry below carries its reported Plant response rating Rice Japonica.
Provide a numeric answer; units are not to be included.

Study these solved cases before continuing.
Bench note: what Plant response rating Rice Japonica did `CCOC(=O)COc1cc(-c2nn3c(c2Cl)CCCC3)c(F)cc1Cl` show?
20

// next record `CCN1C(=O)COc2cc(F)c(-c3nn4c(c3Cl)CCCC4)cc21`
85

Thanks! And C#CC(C)N1C(=O)COc2cc(F)c(-c3nn4c(c3Cl)CCCC4)cc21 (stereo not shown) ?
65

Please give the result for `C=C(Cl)COc1cc(-c2nn3c(c2Cl)CCCC3)c(F)cc1Cl` too.
40

Further, for `CC(C)COc1cc(-c2nn3c(c2Cl)CCCC3)c(F)cc1Cl` ?
50

---
May I ask what Plant response rating Rice Japonica has been recorded for `CC(C)OC(=O)c1cc(-c2nn3c(c2Cl)CCCC3)c(F)cc1Cl` ?
60

Similarly, `C#CCOc1cc(-c2nn3c(c2Br)CCCC3)c(F)cc1Cl` ?
80

---

Test system: bedstraw
Assay: Test B preemergence/postemergence greenhouse plant response rating 0 to 10
Assay type: in vivo, Galium aparine
Conditions: PREEMERGENCE, Rate 50 g/ha; 0 to 10 scale
VALUE KIND: Plant response rating, Bedstraw
Reply briefly: the number, and no unit.

What value of Plant response rating, Bedstraw on bedstraw does `C#CCOc1cc(-c2nn3c(c2Br)CCCC3)c(F)cc1Cl` have?
10

Also, `Clc1ccc(-c2nc3n(c2Br)CCCC3)c(Cl)c1` please.
0

Try this molecule too: `CCN1C(=O)COc2cc(F)c(-c3nn4c(c3Cl)CCCC4)cc21`
9

More entries:
Lab note: need Plant response rating, Bedstraw for `Fc1cc(Cl)ccc1-c1nn2c(c1Br)CCCC2` on bedstraw, anyone have it?
5

Another molecule: `COc1cc(-c2nn3c(c2Cl)CCCC3)c(F)cc1Cl`
7

---

Test system: rice
Assay: Test B preemergence/postemergence greenhouse plant response rating 0 to 10
Type: in vivo, Oryza sativa
Conditions: POSTEMERGENCE, Rate 50 g/ha; 0 to 10 scale
VALUE KIND: Plant response rating, Rice
Number only, please.

For the compound shown here, `CCCN1C(=O)COc2cc(F)c(-c3nn4c(c3Br)CCCC4)cc21` , give the reported Plant response rating, Rice.
5

Would you mind doing `Fc1cc(Cl)c(OCCCl)cc1-c1nn2c(c1Cl)CCCC2` as well?
5

What do you get for `COCCN1C(=O)COc2cc(F)c(-c3nn4c(c3Cl)CCCC4)cc21` ?
4

---

Test system: barley
Assay: Test B preemergence/postemergence greenhouse plant response rating 0 to 10
Format: in vivo, Hordeum vulgare
Settings: POSTEMERGENCE, Rate 200 g/ha; 0 to 10 scale
In this section we review reported Plant response rating, Barley values for a set of compounds.
Please give the numeric answer without any surrounding text.

Please review the entries below; each comes with its answer.
I have this compound here, COC(=O)c1cc(-c2nn3c(c2Cl)CCCC3)c(F)cc1Cl [Compound 43] , and I need its recorded Plant response rating, Barley.
3

Here is the next compound: COC(=O)C(C)Oc1cc(-c2nn3c(c2Cl)CCCC3)c(F)cc1Cl (centres unmarked) [Compound 28]
6

And what about the compound CCC(=O)Oc1cc(-c2nn3c(c2Cl)CCCC3)c(F)cc1Cl [Compound 47] ?
4

Consider next the compound C#CCOc1cc(-c2nn3c(c2Br)CCCC3)c(F)cc1Cl [Compound 26] in the same way.
6

Now for a further compound.
Can you look up the measured Plant response rating, Barley of CCOC(=O)COc1cc(-c2nn3c(c2Cl)CCCC3)c(F)cc1Cl [Compound 42] for me?
4
